Origin of the recorded values: patent US12441710B2

System: human hepatocytes
Test: Hepatocytes stability assay (human hepatocytes)
Format: in vitro ADME
Conditions: hepatic clearance divided by liver blood flow, fu assumed unity
assayMetric: Extraction Ratio (ER)
# respond with the number and nothing more

Solved cases (3 shown):
[
  {
    "molecule": "CS(=O)(=O)N[C@H]1CCN(c2ccccn2)C[C@H]1CO[C@H]1CC[C@@H](c2cccc(F)c2)CC1 [Compound 6]",
    "Extraction Ratio (ER)": 0.87
  },
  {
    "molecule": "CS(=O)(=O)N[C@H]1CCN(c2ccccn2)CC1COC1CCC(c2ccccc2F)CC1 (stereo partly shown) [Compound 5]",
    "Extraction Ratio (ER)": 0.88
  },
  {
    "molecule": "C[C@@H](c1ccccc1)N1CC[C@H](NS(C)(=O)=O)C(COC2CCC(c3ccccc3)CC2)C1 (stereo partly shown) [Compound 37]",
    "Extraction Ratio (ER)": 0.94
  }
]

Q: Form field: reported Extraction Ratio (ER) of CS(=O)(=O)N[C@H]1CCN(c2ccc(F)cn2)CC1COC1CCC(c2ccccc2)CC1 (stereo partly shown) [Compound 24]
Result: 0.86

Q: Let us now turn to CS(=O)(=O)N[C@H]1CCN(c2ccccn2)CC1COC1CCC(c2ccccc2)CC1 (stereo partly shown) [Compound 10]
Result: 0.92

Q: Let us now turn to CS(=O)(=O)N[C@H]1CCN(c2ncccn2)CC1COC1CCC(c2ccccc2)CC1 (stereo partly shown) [Compound 19]
Result: 0.93

Q: Let us now turn to CS(=O)(=O)N[C@H]1CCN(c2ccccn2)CC1COC1CCC(c2ccnnc2)CC1 (stereo partly shown) [Compound 13]
Result: 0.71

* * *

System: MDR1
Assay: MDCK-MDR1 permeability assay
Format: in vitro ADME
Conditions: dog, Papp (B→A) divided by Papp (A→B), 3 μM test compound, read-out: Efflux ratio (ER)
Recorded efflux ratio at 2 h, 3 μM for the following compounds
# respond with the number and nothing more

Solved cases (5 shown):
[
  {
    "compound": "CS(=O)(=O)N[C@H]1CCN(c2ccccn2)C[C@H]1CO[C@H]1CC[C@@H](c2cccc(F)c2)CC1 [Compound 6]",
    "efflux ratio at 2 h, 3 μM": 2.8
  },
  {
    "compound": "CS(=O)(=O)N[C@H]1CCN(c2ccccn2)CC1COC1CCC(c2cccnc2)CC1 (stereo partly shown) [Compound 3]",
    "efflux ratio at 2 h, 3 μM": 24
  },
  {
    "compound": "CS(=O)(=O)N[C@H]1CCN(c2ccccn2)CC1COC1CCC(c2cccc(C#N)c2)CC1 (stereo partly shown) [Compound 35]",
    "efflux ratio at 2 h, 3 μM": 12
  },
  {
    "compound": "CS(=O)(=O)N[C@H]1CCN(c2cccnn2)CC1COC1CCC(c2ccccc2)CC1 (stereo partly shown) [Compound 22]",
    "efflux ratio at 2 h, 3 μM": 23
  },
  {
    "compound": "CS(=O)(=O)N[C@H]1CCN(c2ccccn2)CC1COC1CCC(c2cnccn2)CC1 (stereo partly shown) [Compound 9]",
    "efflux ratio at 2 h, 3 μM": 25
  }
]

Q: Form field: reported efflux ratio at 2 h, 3 μM of CS(=O)(=O)N[C@H]1CCN(c2ccccn2)CC1COC1CCN(c2ncccn2)CC1 (stereo partly shown) [Compound 1]
Result: 12

Q: Let us now turn to CS(=O)(=O)N[C@H]1CCN(Cc2cccnc2)CC1COC1CCC(c2ccccc2)CC1 (stereo partly shown) [Compound 40]
Result: 8.2

Q: Let us now turn to CS(=O)(=O)N[C@H]1CCN(c2ncccc2O)CC1COC1CCC(c2ccccc2)CC1 (stereo partly shown) [Compound 27]
Result: 3

Q: Let us now turn to CS(=O)(=O)N[C@H]1CCN(Cc2ccccn2)CC1COC1CCC(c2ccccc2)CC1 (stereo partly shown) [Compound 39]
Result: 15

Q: Let us now turn to CS(=O)(=O)N[C@H]1CCN(c2nccc3ncnn23)CC1COC1CCC(c2ccccc2)CC1 (stereo partly shown) [Compound 44]
Result: 6.4

Q: Let us now turn to CS(=O)(=O)N[C@H]1CCN(c2ccccn2)CC1COC1CCC(c2ccncc2)CC1 (stereo partly shown) [Compound 4]
Result: 14

Q: Let us now turn to CS(=O)(=O)N[C@H]1CCN(c2ccccn2)CC1COC1CCC(c2ncccn2)CC1 (stereo partly shown) [Compound 11]
Result: 11

* * *

Recorded Extraction Ratio (ER) for the following molecules
System: human hepatocytes
Assay: Hepatocytes stability assay (human hepatocytes)
Assay type: in vitro ADME
Details: hepatic clearance divided by liver blood flow, fu assumed unity
Experimental: In vitro metabolic stability was assessed using cryopreserved hepatocytes from male Sprague Dawley rats and a pool of 50 mixed gender humans (BioIVT, Baltimore, MD). […] Data was calculated as percent remaining by assuming zero-minute time point peak area ratio (analyte/IS) as 100% and dividing remaining time point peak area ratios by zero-minute time point peak area ratio. […] From a plot of log (ln) peak area against time, the slope of the line was determined. […]

Solved cases (3 shown):
[
  {
    "molecule": "CS(=O)(=O)N[C@H]1CCN(Cc2ccccc2)CC1COC1CCC(c2ccccc2)CC1 (stereo partly shown)",
    "Extraction Ratio (ER)": 0.90
  },
  {
    "molecule": "CS(=O)(=O)N[C@H]1CCN(c2ccccn2)CC1COC1CCC(c2cccnc2)CC1 (stereo partly shown)",
    "Extraction Ratio (ER)": 0.88
  },
  {
    "molecule": "CS(=O)(=O)N[C@H]1CCN(c2ccccn2)CC1COC1CCC(c2cnccn2)CC1 (stereo partly shown)",
    "Extraction Ratio (ER)": 0.87
  }
]

Q: Form field: reported Extraction Ratio (ER) of CS(=O)(=O)N[C@H]1CCN(c2ccccn2)CC1COC1CCC(c2cccc(C(F)(F)F)c2)CC1 (stereo partly shown)
Result: 0.92

Q: Let us now turn to CS(=O)(=O)N[C@H]1CCN(c2ccccn2)CC1COC1CCC(c2ccncc2)CC1 (stereo partly shown)
Result: 0.89

Q: Let us now turn to CS(=O)(=O)N[C@H]1CCN(c2nccc3ncnn23)CC1COC1CCC(c2ccccc2)CC1 (stereo partly shown)
Result: 0.95

Q: Let us now turn to CS(=O)(=O)N[C@H]1CCN(c2ccccn2)CC1COC1CCN(c2ncccn2)CC1 (stereo partly shown)
Result: 0.82

Q: Let us now turn to CS(=O)(=O)N[C@H]1CCN(c2ccccn2)CC1COC1CCC(c2cccc(C#N)c2)CC1 (stereo partly shown)
Result: 0.94

* * *

Biological target: human orexin-2 receptor (OX2R) (Homo sapiens, UniProt O43614)
Sequence (O43614 whole entry): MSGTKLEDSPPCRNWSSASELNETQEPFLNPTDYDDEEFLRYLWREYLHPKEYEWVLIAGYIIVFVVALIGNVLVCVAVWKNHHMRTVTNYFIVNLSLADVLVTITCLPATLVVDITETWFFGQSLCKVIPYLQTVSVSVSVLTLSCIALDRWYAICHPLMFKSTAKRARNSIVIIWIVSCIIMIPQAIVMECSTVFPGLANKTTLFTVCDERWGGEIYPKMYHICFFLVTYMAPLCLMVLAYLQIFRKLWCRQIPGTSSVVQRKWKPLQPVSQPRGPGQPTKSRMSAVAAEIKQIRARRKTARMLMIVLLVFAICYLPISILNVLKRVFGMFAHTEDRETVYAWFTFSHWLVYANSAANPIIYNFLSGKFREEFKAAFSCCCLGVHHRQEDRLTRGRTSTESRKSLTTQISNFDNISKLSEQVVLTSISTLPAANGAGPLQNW
Assay: Human OX2R IP1 assay
Conditions: T-Rex CHO cells stably overexpressing human OX2R; IP1 accumulation, 1 hr at 37 degrees C
pEC50: −log10 of the molar value.
Recorded pEC50 for the following molecules

Solved cases (10 shown):
[
  {
    "molecule": "O=S(=O)(N[C@H]1CCN(c2ccccn2)C[C@H]1CO[C@H]1CC[C@@H](c2ccccc2)CC1)C(F)(F)F",
    "result": "> 7.00"
  },
  {
    "molecule": "CS(=O)(=O)N[C@H]1CCN(c2ccccn2)CC1COC1CCN(c2ncccn2)CC1 (stereo partly drawn)",
    "result": "< 6.00"
  },
  {
    "molecule": "Cc1cccc([C@H]2CC[C@@H](OC[C@@H]3CN(c4ccccn4)CC[C@@H]3NS(C)(=O)=O)CC2)c1C",
    "result": "> 7.00"
  },
  {
    "molecule": "CS(=O)(=O)N[C@H]1CCN(c2ccccn2)C[C@H]1CO[C@H]1CC[C@@H](c2cnccn2)CC1",
    "result": "< 6.00"
  },
  {
    "molecule": "CS(=O)(=O)N[C@H]1CCN(c2cccc3ncnn23)C[C@H]1CO[C@H]1CC[C@@H](c2ccccc2)CC1",
    "result": "< 6.00"
  },
  {
    "molecule": "CS(=O)(=O)N[C@H]1CCN(c2ccccn2)C[C@H]1CO[C@H]1CC[C@@H](c2ccccn2)CC1",
    "result": "> 7.00"
  },
  {
    "molecule": "CS(=O)(=O)N[C@H]1CCN(c2ncccc2O)C[C@H]1CO[C@H]1CC[C@@H](c2ccccc2)CC1",
    "result": "> 7.00"
  },
  {
    "molecule": "CS(=O)(=O)N[C@H]1CCN(c2ccc(F)cn2)C[C@H]1CO[C@H]1CC[C@@H](c2ccccc2)CC1",
    "result": "> 7.00"
  },
  {
    "molecule": "CS(=O)(=O)N[C@H]1CCN(Cc2ccncc2)C[C@H]1CO[C@H]1CC[C@@H](c2ccccc2)CC1",
    "result": "< 6.00"
  },
  {
    "molecule": "CS(=O)(=O)N[C@H]1CCN(c2cccc3ccnn23)C[C@H]1CO[C@H]1CC[C@@H](c2ccccc2)CC1",
    "result": "< 6.00"
  }
]

Q: Form field: reported pEC50 of CS(=O)(=O)N[C@H]1CCN(c2ccccn2)C[C@H]1CO[C@H]1CC[C@@H](c2cncnc2)CC1
Result: < 6.00

Q: Let us now turn to CS(=O)(=O)N[C@H]1CCN(c2ccccn2)C[C@H]1CO[C@H]1CC[C@@H](c2ccc(F)cc2)CC1
Result: > 7.00

Q: Let us now turn to CS(=O)(=O)N[C@H]1CCN(c2ccccn2)C[C@H]1CO[C@H]1CC[C@@H](c2ccnnc2)CC1
Result: < 6.00

Q: Let us now turn to CS(=O)(=O)N[C@H]1CCN(c2ncccn2)C[C@H]1CO[C@H]1CC[C@@H](c2ccccc2)CC1
Result: > 7.00

Q: Let us now turn to C[C@@]1(CO[C@H]2CC[C@@H](c3ccccc3)CC2)CN(c2ccccn2)CC[C@@H]1NS(C)(=O)=O
Result: > 7.00
